Molecular target: Recombinant human IL-1beta (rhIL-1b) (human, UniProt P01584 117-269)
Test: cell-based or functional assay
For each entry below, report its EC50, inhibition of IL-1β-induced IL-6 production in MRC-5 cells value.

9.26.1 (antibody, human IgG4, V domains shown, lambda; also called 9.26.3) VH: QVQLVESGGGVVQPGRSLRLSCAASGFTFNNYGMHWVRQAPGKGLECVAVIWYDGGNKYYADSVKGRFAISRDNSKNTLYLQMNSLRAEDTAVYYCTAVTKLNYYYGMDVWGQGTTVTVS VL: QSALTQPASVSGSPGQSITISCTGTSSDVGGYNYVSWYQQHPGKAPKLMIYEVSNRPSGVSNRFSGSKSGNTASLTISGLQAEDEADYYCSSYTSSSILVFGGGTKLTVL	5.68 nM
8.18.1 (antibody, human IgG4, V domains shown, lambda; also called mAb 8.18.1) VH: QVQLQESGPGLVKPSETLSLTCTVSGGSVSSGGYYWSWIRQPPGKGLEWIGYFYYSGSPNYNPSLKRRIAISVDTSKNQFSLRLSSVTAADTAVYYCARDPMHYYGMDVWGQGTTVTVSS VL: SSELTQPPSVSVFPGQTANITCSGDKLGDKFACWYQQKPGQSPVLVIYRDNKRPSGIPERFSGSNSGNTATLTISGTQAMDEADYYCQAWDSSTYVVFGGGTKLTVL	0.536 nM
6.33.1 (antibody, human IgG4, V domains shown, lambda; also called mAb 6.33.1) VH: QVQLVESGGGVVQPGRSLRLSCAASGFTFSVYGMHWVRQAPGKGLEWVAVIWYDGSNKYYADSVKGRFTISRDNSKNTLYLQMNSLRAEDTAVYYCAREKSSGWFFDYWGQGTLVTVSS VL: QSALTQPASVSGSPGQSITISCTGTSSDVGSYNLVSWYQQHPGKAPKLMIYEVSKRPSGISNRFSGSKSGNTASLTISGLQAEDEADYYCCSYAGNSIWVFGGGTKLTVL	1.06 nM
9.2.1 (antibody, human IgG4, V domains shown, lambda) VH: QVQLVESGGGVVQPGRSLRLSCAASGFTFNNYGMHWVRQAPGKGLECVAVIWYDGGNKYYADSVKGRFAISRDNSKNTLYLQMNSLRAEDTAVYYCTAVTTLYYYYGMDVWGQGTTVTVS VL: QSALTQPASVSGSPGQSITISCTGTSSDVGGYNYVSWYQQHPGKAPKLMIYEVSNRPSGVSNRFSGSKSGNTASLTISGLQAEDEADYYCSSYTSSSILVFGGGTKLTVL	5.47 nM
5.5.1 (antibody, IgG4, V domains shown, lambda; also called mAb 5.5.1; Ab 5.5.1) VH: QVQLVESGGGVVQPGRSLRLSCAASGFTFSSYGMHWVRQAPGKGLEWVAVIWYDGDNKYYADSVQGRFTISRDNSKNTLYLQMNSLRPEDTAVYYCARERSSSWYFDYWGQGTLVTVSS VL: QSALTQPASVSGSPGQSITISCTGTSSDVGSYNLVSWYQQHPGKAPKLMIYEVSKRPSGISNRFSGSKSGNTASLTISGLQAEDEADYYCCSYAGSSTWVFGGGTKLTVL	0.216 nM
9.54.1 (antibody, human IgG4, V domains shown, lambda; also called 9.54.2) VH: QVQLVESGGGVVQPGRSLRLSCAASGFTFSSFGMHWVRQAPGKGLEWVAVIWYDGSNKYYADSVKGRFTISRDNSKNTLYLQMNSLRAEDTAVYYCARDPNYDILTGYYYYGMDVWGQGTTVTVS VL: SSELTQDPAVSVALGQTVRITCQGDILRTYYASWYQQKPGQAPVLVIYGKNDRPSGIPDRFSGSSSGNTASLTITGAQAEDEADYYCDSRDNTVTHLVFGGGTKLTVL	11.6 nM

# next binder below
[in] Requested field: EC50, inhibition of IL-1β-induced IL-6 production in MRC-5 cells. Item: 5.36.1 (antibody, human IgG4, V domains shown, kappa) VH: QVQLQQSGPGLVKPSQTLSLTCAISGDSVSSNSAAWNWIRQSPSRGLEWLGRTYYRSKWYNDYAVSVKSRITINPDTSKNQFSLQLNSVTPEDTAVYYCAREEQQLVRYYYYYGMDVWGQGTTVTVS VL: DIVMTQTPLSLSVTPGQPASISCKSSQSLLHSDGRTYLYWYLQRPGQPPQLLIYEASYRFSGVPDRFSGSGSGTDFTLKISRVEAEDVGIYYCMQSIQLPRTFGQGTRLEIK
[out] 3.15 nM
